# experimental.target: T1, BODIPY-β-annulus peptide (tomato bushy stunt virus, BODIPY-maleimide added by Michael addition to the thiol of the N-terminal Cys)
# T1 construct: also called BODIPY-labelled β-annulus peptide; fluorescent-labelled β-annulus peptide; source: synthetic peptide (solid-phase Fmoc chemistry; labelled with BODIPY-maleimide; purified by reversed-phase HPLC)
# T1 peptide: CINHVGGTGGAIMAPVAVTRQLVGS
# assay.overview: fluorescence correlation spectroscopy (FCS); 0.1 μM BODIPY-β-annulus peptide with 0~200 μM β-annulus peptide in 10 mM Tris-HCl buffer (pH 7.0) with 5 wt% PEG2000, 25 °C; ratio of the slow component fitted to the Hill equation
# condition.context: both partners purified
pKd: −log10 of the molar value.

binder: INHVGGTGGAIMAPVAVTRQLVGS (also called unmodified β-annulus peptide; source: synthetic peptide (solid-phase Fmoc chemistry, purified by reversed-phase HPLC)) [24-mer β-annulus peptide from tomato bushy stunt virus]
pKd: 4.84
